target: T1, BEN domain 1 of BEND3 (human, UniProt Q5T5X7 236-347)
T1 sequence: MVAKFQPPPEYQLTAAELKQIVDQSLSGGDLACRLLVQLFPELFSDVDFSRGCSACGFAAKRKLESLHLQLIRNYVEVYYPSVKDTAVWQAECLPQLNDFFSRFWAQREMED
assay_notes: MST
measured_quantity: Kd

Qu. Quick one: Kd of N-terminal TPR motif of PICH (domain or fragment, human) AEALSPEQAAHYLRYVKEAKEATKNGDLEEAFKLFNLAKDIFPNEKVLSRIQKIQEA ?
Ans. 1200 nM
